Just for reference, patent US10259810B2 is where these values come from.

# study_target: ΔF508-CFTR (Homo sapiens, UniProt P13569, DEL508-508)
# Construct: host or cells: CFBE41o-, doxycycline-inducible
# Sequence (P13569 with tags, fused parts or gaps DEL508-508): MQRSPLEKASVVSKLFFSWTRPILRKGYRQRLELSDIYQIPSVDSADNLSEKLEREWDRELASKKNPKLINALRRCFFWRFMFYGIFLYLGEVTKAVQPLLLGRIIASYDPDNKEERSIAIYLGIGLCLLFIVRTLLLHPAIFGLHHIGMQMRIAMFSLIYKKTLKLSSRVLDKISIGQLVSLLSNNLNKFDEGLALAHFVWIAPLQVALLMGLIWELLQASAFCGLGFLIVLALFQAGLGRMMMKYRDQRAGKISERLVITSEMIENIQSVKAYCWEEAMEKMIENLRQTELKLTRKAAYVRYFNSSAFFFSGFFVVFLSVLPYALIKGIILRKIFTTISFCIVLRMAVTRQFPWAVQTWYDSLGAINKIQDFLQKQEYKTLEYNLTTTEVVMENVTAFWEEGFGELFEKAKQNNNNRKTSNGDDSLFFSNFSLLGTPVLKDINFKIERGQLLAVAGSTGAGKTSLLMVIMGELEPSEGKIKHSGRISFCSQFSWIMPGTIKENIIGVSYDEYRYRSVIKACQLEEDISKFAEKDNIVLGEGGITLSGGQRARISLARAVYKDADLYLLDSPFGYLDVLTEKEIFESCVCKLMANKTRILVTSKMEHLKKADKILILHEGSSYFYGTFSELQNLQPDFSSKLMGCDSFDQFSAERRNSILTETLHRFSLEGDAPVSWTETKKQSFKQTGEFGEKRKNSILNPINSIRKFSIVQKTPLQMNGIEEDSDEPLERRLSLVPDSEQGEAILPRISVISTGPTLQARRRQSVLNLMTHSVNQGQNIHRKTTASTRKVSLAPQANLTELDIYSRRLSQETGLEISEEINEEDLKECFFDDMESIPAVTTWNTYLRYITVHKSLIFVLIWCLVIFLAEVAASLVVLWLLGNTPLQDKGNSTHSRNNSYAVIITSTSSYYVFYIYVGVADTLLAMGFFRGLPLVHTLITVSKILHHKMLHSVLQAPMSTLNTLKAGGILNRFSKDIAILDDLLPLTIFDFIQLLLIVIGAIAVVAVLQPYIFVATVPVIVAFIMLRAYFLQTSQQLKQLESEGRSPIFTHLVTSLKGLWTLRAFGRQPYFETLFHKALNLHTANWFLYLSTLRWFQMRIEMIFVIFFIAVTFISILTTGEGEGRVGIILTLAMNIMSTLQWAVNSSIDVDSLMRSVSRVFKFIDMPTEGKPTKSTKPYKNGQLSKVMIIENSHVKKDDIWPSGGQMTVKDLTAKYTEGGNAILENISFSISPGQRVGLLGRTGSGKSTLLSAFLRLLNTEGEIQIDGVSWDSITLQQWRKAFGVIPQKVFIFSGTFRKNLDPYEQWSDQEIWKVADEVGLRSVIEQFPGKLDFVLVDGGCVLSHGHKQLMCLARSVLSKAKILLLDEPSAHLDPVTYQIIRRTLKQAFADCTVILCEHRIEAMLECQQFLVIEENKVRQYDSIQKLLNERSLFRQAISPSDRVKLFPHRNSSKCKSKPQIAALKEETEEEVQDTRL
# test_details: CFTR cell surface levels using HRP-tagged ΔF508-CFTR expressing CFBE cells, in the presence of a co-corrector
# Type: cell-based
# test_conditions: HRP-tagged ΔF508-CFTR CFBE cells, in the presence of 3 μM co-corrector; read-out: EC50
Documented pEC50 across a set of molecules
When answering, recall that pEC50 equals minus log10 of the concentration in mol/L, and write that number alone.

These solved cases illustrate the format of a correct answer.
- molecule: "CC(C)c1nn(-c2ccc(F)cc2)c2nc(C(=O)NS(C)(=O)=O)cc(OCCCN3CCCCC3)c12 [Compound 307]"
  observed_result: 5.89
- molecule: "COCC1CCN(c2cc(C(=O)NS(C)(=O)=O)nc3c2c(C2CCC2)nn3-c2ccnc(C)c2)CC1 [Compound 430]"
  observed_result: 7.05
- molecule: "C[C@@H]1CN(c2cc(C(=O)NS(=O)(=O)N(C)C)nc3c2c(C2CCC2)nn3C2CCCCC2)CCN1Cc1ccccc1 [Compound 582]"
  observed_result: 6.57
- molecule: "CS(=O)(=O)NC(=O)c1cc(N2CCC(N3CCOCC3)CC2)c2c(C3CCC3)nn(-c3ccc(C(F)(F)F)cc3)c2n1 [Compound 510]"
  observed_result: 6.77
- molecule: "COC1CCN(c2cc(C(=O)NS(=O)(=O)CCC(F)(F)F)nc3c2c(C2CCC2)nn3-c2ccccc2)CC1 [Compound 147]"
  observed_result: 7.00

// next entry
Value of pEC50 reported for the molecule COCCN1CCN(S(=O)(=O)NC(=O)c2cc(N3CCC(COC)CC3)c3c(C4CCC4)nn(-c4ccc(F)cc4)c3n2)CC1 [Compound 610] is 6.93
